For each of the compounds below, state its IC50.
SYSTEM TESTED: hTSHR (Homo sapiens, UniProt P16473)
Construct: expressed in transfected cells
Sequence (P16473 21-764): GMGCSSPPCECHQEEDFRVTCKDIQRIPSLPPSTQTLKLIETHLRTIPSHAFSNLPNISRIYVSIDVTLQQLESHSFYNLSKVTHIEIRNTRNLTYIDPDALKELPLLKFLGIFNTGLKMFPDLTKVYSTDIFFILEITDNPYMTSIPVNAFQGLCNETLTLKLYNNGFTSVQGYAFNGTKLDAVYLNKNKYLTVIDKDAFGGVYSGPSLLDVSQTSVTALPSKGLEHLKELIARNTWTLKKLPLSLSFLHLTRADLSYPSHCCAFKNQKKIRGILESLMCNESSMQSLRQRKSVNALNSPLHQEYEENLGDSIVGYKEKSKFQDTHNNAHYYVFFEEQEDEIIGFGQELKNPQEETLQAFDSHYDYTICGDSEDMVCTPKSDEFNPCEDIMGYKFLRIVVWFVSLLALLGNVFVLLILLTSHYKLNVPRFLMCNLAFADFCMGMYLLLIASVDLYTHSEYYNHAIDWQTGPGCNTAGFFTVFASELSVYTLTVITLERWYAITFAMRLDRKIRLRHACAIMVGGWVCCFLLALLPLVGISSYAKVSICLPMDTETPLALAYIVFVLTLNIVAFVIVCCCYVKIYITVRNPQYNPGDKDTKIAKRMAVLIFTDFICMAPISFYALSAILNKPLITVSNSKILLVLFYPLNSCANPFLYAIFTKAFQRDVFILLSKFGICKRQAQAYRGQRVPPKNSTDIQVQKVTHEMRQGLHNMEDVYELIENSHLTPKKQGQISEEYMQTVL
MEASUREMENT NOTES: hTSHR TR-FRET cAMP Assay (inhibition of M22-stimulated cAMP production)
Assay type: cell-based
CONDITION INFO: Expi293F Inducible cells stably expressing hTSHR; cAMP HTRF; stimulated with EC80 of anti-TSHR antibody M22; 15 min compound preincubation, 30 min at 37° C.; read-out: Activity (IC50 bins)

Data request: Report IC50 for C[C@H]1Oc2cc(NC(=O)NC(C)(C)C)c(F)cc2N(Cc2cccc(OC(F)F)c2)C1=O please.
Data returned: 100 to 1000 nM

Data request: Report IC50 for CC(C)(C)NC(=O)Nc1ccc2c(c1)ncc(=O)n2Cc1cccc(CCCC(F)(F)F)c1 please.
Data returned: < 100 nM

Data request: Report IC50 for C[C@@H](c1cccc(Cl)c1)n1c(=O)cnc2cc(NC(=O)NC(C)(C)C)ccc21 please.
Data returned: < 100 nM

---

SYSTEM TESTED: hTSHR (Homo sapiens, UniProt P16473)
Construct: expressed in transfected cells
MEASUREMENT NOTES: hTSHR TR-FRET cAMP Assay (inhibition of M22-stimulated cAMP production)
Format: cell-based
CONDITION INFO: Expi293F Inducible cells stably expressing hTSHR; cAMP HTRF; stimulated with EC80 of anti-TSHR antibody M22; 15 min compound preincubation, 30 min at 37° C.; read-out: Activity (IC50 bins)
ENDPOINT: IC50

Data request: Report IC50 for C[C@@H](c1cccc(OC(F)(F)F)c1)n1c(=O)cnc2cc(NC(=O)NC34CCC(C3)C4)ccc21 please.
Data returned: < 100 nM

Data request: Report IC50 for C[C@H]1Oc2cc(NC(=O)NC(C)(C)C)ccc2N(Cc2cccc(OC(F)(F)F)c2)C1=O please.
Data returned: < 100 nM

Data request: Report IC50 for C[C@H]1Oc2cc(NC(=O)NC(C)(C)C)ccc2N(Cc2cncc(C(F)(F)F)c2)C1=O please.
Data returned: 100 to 1000 nM

Data request: Report IC50 for C[C@@H](c1cc(Cl)ccc1Cl)n1c(=O)cnc2cc(NC(=O)NC(C)(C)C)c(C#N)cc21 please.
Data returned: 100 to 1000 nM

Data request: Report IC50 for CC(C)(C)NC(=O)Nc1cc2c(cc1C#N)N(Cc1ccccc1)C(=O)CC2 please.
Data returned: > 1000 nM

Data request: Report IC50 for C[C@@H](c1cc(Cl)ccc1F)n1c(=O)cnc2cc(NC(=O)NC(C)(C)C)c(C#N)cc21 please.
Data returned: 100 to 1000 nM

Data request: Report IC50 for C[C@@H](c1ccccc1)N1C(=O)COc2cc(NC(=O)NC(C)(C)C)ccc21 please.
Data returned: < 100 nM

Data request: Report IC50 for C[C@H]1Oc2cc(NC(=O)NC(C)(C)C)ccc2N([C@@H](C)c2cccc(OC(F)(F)F)c2)C1=O please.
Data returned: 100 to 1000 nM

Data request: Report IC50 for C[C@@H](c1ccccc1)n1c(=O)cnc2cc(NC(=O)NC(C)(C)C)c(C3CC3)cc21 please.
Data returned: 100 to 1000 nM

---

For each of the compounds below, state its IC50.
SYSTEM TESTED: hTSHR (Homo sapiens, UniProt P16473)
Construct: expressed in transfected cells
MEASUREMENT NOTES: hTSHR TR-FRET cAMP Assay (inhibition of M22-stimulated cAMP production)
Assay type: cell-based
CONDITION INFO: Expi293F Inducible cells stably expressing hTSHR; cAMP HTRF; stimulated with EC80 of anti-TSHR antibody M22; 15 min compound preincubation, 30 min at 37° C.; read-out: Activity (IC50 bins)
Method: Assays were performed using Expi293F Inducible cells (Invitrogen) stably expressing hTSHR via a pcZeo TetO DNA plasmid. […] Assay-ready aliquots were prepared by harvesting each cell type separately 24-hours post-induction. Cells were pelleted at 4° C., resuspended in Expi293 Expression media+10% DMSO, aliquoted, and kept frozen at −80° C. until ready for use. […]

Data request: Request: IC50, test system hTSHR (Homo sapiens, UniProt P16473), entry C[C@H]1Oc2cc(NC(=O)NC(C)(C)C)ccc2N(Cc2nc(C(F)(F)F)cs2)C1=O [Example 168]
Data returned: 100 to 1000 nM

Data request: Request: IC50, test system hTSHR (Homo sapiens, UniProt P16473), entry C[C@H]1Oc2cc(NC(=O)N[C@H]3C[C@@H](C(F)(F)F)C3)ccc2N([C@@H](C)c2cccc(OC(F)(F)F)c2)C1=O [Example 325]
Data returned: 100 to 1000 nM

Data request: Request: IC50, test system hTSHR (Homo sapiens, UniProt P16473), entry CC(c1ccc2cnn(CCC(F)(F)F)c2c1)n1c(=O)cnc2cc(NC(=O)NC(C)(C)C)ccc21 (stereo not drawn) [Example 249]
Data returned: > 1000 nM

Data request: Request: IC50, test system hTSHR (Homo sapiens, UniProt P16473), entry C[C@@H](c1cccc(OC(F)(F)F)c1)n1c(=O)cnc2cc(NC(=O)C3CCC3(C)C)ccc21 (stereo in doubt) [Example 219]
Data returned: < 100 nM

Data request: Request: IC50, test system hTSHR (Homo sapiens, UniProt P16473), entry CC(C)(C)NC(=O)Nc1ccc2c(c1)ncc(=O)n2Cc1cccc(OC(F)(F)F)c1 [Example 91]
Data returned: 100 to 1000 nM

Data request: Request: IC50, test system hTSHR (Homo sapiens, UniProt P16473), entry C[C@@H](c1cccc(Cl)c1Cl)n1c(=O)cnc2cc(NC(=O)NC(C)(C)C)ccc21 [Example 142]
Data returned: 100 to 1000 nM

Data request: Request: IC50, test system hTSHR (Homo sapiens, UniProt P16473), entry C[C@@H](c1cccc([C@@H](O)C(F)(F)F)c1)n1c(=O)cnc2cc(NC(=O)NC(C)(C)C)ccc21 [Example 155]
Data returned: 100 to 1000 nM

Data request: Request: IC50, test system hTSHR (Homo sapiens, UniProt P16473), entry C[C@H]1Oc2cc(NC(=O)NC3(C(F)(F)F)CCCC3)ccc2N([C@@H](C)c2ccccc2)C1=O [Example 257]
Data returned: < 100 nM

Data request: Request: IC50, test system hTSHR (Homo sapiens, UniProt P16473), entry C[C@@H](c1cccc(OC(F)(F)F)c1)n1c(=O)cnc2cc(NC(=O)NC3(C)COC3)ccc21 [Example 212]
Data returned: > 1000 nM

Data request: Request: IC50, test system hTSHR (Homo sapiens, UniProt P16473), entry C[C@H]1Oc2cc(NC(=O)NC3(C)CCC3)ccc2N(Cc2cccc(C(F)(F)F)n2)C1=O [Example 226]
Data returned: < 100 nM

Data request: Request: IC50, test system hTSHR (Homo sapiens, UniProt P16473), entry C[C@@H](c1cccc(OC(F)(F)F)c1)n1c(=O)cnc2cc(NC(=O)NC3(C)CCCCC3)ccc21 [Example 210]
Data returned: < 100 nM

Data request: Request: IC50, test system hTSHR (Homo sapiens, UniProt P16473), entry C[C@@H](c1cccc(C(F)(F)F)n1)n1c(=O)cnc2cc(NC(=O)NC(C)(C)C)ccc21 [Example 103]
Data returned: 100 to 1000 nM
